Target: CpunPBP5 (Conogethes punctiferalis)
Sequence (A0A0M4FIS7 entry or part of it): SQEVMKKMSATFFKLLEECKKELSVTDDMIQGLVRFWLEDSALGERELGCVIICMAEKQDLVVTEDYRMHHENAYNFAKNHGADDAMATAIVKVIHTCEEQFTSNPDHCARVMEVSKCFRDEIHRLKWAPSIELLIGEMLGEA
Method Notes: Fluorescence displacement (competitive, 1-NPN) binding assay
Measurement Conditions: ratio of fluorescence intensity at the pheromone concentration of 6 mM to the initial fluorescence intensity; pH = 7.4; read-out: Int (%)
Description: The fluorescence intensity was recorded on a FluoroMax-4 spectrophotometer (Horiba Scientific, USA) at room temperature using a 1 cm light path fluorimeter quartz cuvette. The fluorescent probe N-phenyl-1-naphthylamine (1-NPN) and all the tested chemicals were dissolved in HPLC purity methanol. The final concentration was prepared 1 mM. […] The fluorescence of 1-NPN was excited at 337 nm and emission spectra were recorded between 300 and 450 nm. […]
So I've got a bunch of compounds here, and I need their activity at 6000 µM values.

>  <Compound>
CCCCCCCCCCCCCCCC=O

>  <Reported Result>
46.8%

$$$$

For the 2 compounds below, give their activity at 6000 µM values.
1. CCCCC/C=C/CCCCCCCCC=O [E10-16:Ald, (E)-10-hexadecenal]
2. CCCCCCCCCCCCCCCC(=O)O

["40%", "53.5%"]
